Origin of the recorded values: ChEMBL document CHEMBL4130483

- assay.method.text: Selectivity index, ratio of CC50 for dog DH82 cells to IC50 for Leishmania infantum MHOM/BR/70/BH46 intracellular amastigotes infected in canine DH82 cells
- Assay type: toxicity, cell-based
measurement.name: selectivity ratio

Data request: Provide measured selectivity ratio value, entry: CC1(C)CC[C@]2(C(=O)OCc3cn(Cc4ccccc4F)nn3)CC[C@]3(C)C(=CC[C@@H]4[C@@]5(C)CC[C@H](O)[C@@](C)(COCc6cn(Cc7ccccc7F)nn6)[C@@H]5CC[C@]43C)[C@@H]2C1
Data returned: > 178

---

- assay.method.text: Cytotoxicity in dog DH82 cells assessed as reduction in cell viability incubated for 48 hrs by MTT assay
- Type: cell-based, Canis lupus familiaris
measurement.name: CC50 at 48 h

Before answering, review these 3 worked examples.
[[record]]
smiles_entry = "CC1(C)CC[C@]2(C(=O)OCc3cn(Cc4ccc([N+](=O)[O-])cc4)nn3)CC[C@]3(C)C(=CC[C@@H]4[C@@]5(C)CC[C@H](O)[C@@](C)(COCc6cn(Cc7ccc([N+](=O)[O-])cc7)nn6)[C@@H]5CC[C@]43C)[C@@H]2C1"
measurement_name = "CC50 at 48 h"
recorded_result = "> 1000 µM"

[[record]]
smiles_entry = "Cc1ccc(C(=O)Cn2cc(COC[C@@]3(C)[C@@H]4CC[C@]5(C)[C@H](CC=C6[C@@H]7CC(C)(C)CC[C@]7(C(=O)OCc7cn(CC(=O)c8ccc(C)cc8)nn7)CC[C@]65C)[C@@]4(C)CC[C@@H]3O)nn2)cc1"
measurement_name = "CC50 at 48 h"
recorded_result = "> 1000 µM"

[[record]]
smiles_entry = "CC1(C)CC[C@]2(C(=O)OCc3cn(Cc4ccc(F)cc4F)nn3)CC[C@]3(C)C(=CC[C@@H]4[C@@]5(C)CC[C@H](O)[C@@](C)(COCc6cn(Cc7ccc(F)cc7F)nn6)[C@@H]5CC[C@]43C)[C@@H]2C1"
measurement_name = "CC50 at 48 h"
recorded_result = "140 µM"


Data request: Report CC50 at 48 h, nothing else, for this molecule: C#CCOC[C@@]1(C)[C@@H]2CC[C@]3(C)[C@H](CC=C4[C@@H]5CC(C)(C)CC[C@]5(C(=O)OCC#C)CC[C@]43C)[C@@]2(C)CC[C@@H]1O
Data returned: 259 µM

Data request: Look up and report measured CC50 at 48 h for this entry: CC1(C)CC[C@]2(C(=O)OCc3cn(Cc4ccccc4F)nn3)CC[C@]3(C)C(=CC[C@@H]4[C@@]5(C)CC[C@H](O)[C@@](C)(COCc6cn(Cc7ccccc7F)nn6)[C@@H]5CC[C@]43C)[C@@H]2C1
Data returned: > 1000 µM

Data request: Please indicate CC50 at 48 h recorded for CC1(C)CC[C@]2(C(=O)O)CC[C@]3(C)C(=CC[C@@H]4[C@@]5(C)CC[C@H](O)[C@@](C)(CO)[C@@H]5CC[C@]43C)[C@@H]2C1
Data returned: > 1000 µM

---

- System: Leishmania infantum
- assay.method.text: Antileishmanial activity against Leishmania infantum MHOM/BR/70/BH46 intracellular amastigotes infected in canine DH82 cells assessed as as inhibition of cell growth
- Assay type: functional, organism-based
- test.conditions: MHOM/BR/70/BH46, DH82
measurement.name: pIC50
Keep it numeric: pIC50 is minus log10 of the concentration in mol/L.

Data request: Answer with the recorded pIC50 of CC1(C)CC[C@]2(C(=O)OCc3cn(Cc4ccccc4F)nn3)CC[C@]3(C)C(=CC[C@@H]4[C@@]5(C)CC[C@H](O)[C@@](C)(COCc6cn(Cc7ccccc7F)nn6)[C@@H]5CC[C@]43C)[C@@H]2C1 only.
Data returned: 5.25
